Reference for the values: paper PMC10397247

# SYSTEM_TESTED: T1, 4H2592-AA
# T1 chain: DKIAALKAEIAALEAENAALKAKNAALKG
# PROCEDURE_TEXT: two-hybrid library CCmax;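 note: natural log of median RNA to DNA barcode read ratio; higher means stronger binding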
# EXPERIMENTAL_CONDITIONS: mean of both orientations
MEASURE_NAME: interaction score

Consider the worked cases shown below.
- BINDER: "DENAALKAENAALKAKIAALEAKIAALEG [4H1765-AA]"
  REPORTED_RESULT: -1.67
- BINDER: "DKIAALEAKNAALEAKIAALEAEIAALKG [4H2466-AA]"
  REPORTED_RESULT: -1.71
- BINDER: "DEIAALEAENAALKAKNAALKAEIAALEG [4H249-AA]"
  REPORTED_RESULT: -0.437
- BINDER: "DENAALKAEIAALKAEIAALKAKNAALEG [4H1615-AA]"
  REPORTED_RESULT: -1.27
- BINDER: "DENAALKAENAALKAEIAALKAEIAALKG [4H1738-AA]"
  REPORTED_RESULT: -1.14
- BINDER: "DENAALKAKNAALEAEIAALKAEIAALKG [4H1930-AA]"
  REPORTED_RESULT: -1.46

I. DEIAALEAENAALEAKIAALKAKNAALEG [4H175-AA]
II. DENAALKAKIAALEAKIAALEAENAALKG [4H1828-AA]
Request: Looking at I and II , which one comes out lower in interaction score terms? Your choice should be expressed through its label.
Result: I

P. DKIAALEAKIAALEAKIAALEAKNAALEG [4H2343-AA]
Q. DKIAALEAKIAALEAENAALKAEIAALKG [4H2330-AA]
Request: Choose between P and Q : whose measured interaction score value is numerically larger? Your choice should be expressed through its label.
Result: Q

1. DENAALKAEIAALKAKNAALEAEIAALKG [4H1650-AA]
2. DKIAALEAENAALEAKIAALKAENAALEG [4H2219-AA]
Request: Choose between 1 and 2 : whose measured interaction score value is numerically larger? Your choice should be expressed through its label.
Result: 2
